Listing: pEC50 of selected compounds
Tested on: HCV replicon
Test Protocol: HCV replicon assay (FRET or luciferase reporter)
Type: cell-based
Details: Hepatitis C virus, one of the methods described, class symbol
pEC50: −log10 of the molar value.

Example compounds with recorded pEC50:
{"Compound": "COc1ccc2c(c1)C=C(c1c(C(=O)N3C[C@@H](C)O[C@@H](C)C3)cnn1C1CCC1)Cn1c-2c(C2CCCCC2)c2ccc(C(=O)NS(=O)(=O)N(C)C)cc21 [drawing 259]", "pEC50": "6.30 to 8.77"}
{"Compound": "COc1ccc2c(c1)C=C(c1c(C(=O)N3C[C@@H]4C[C@H]3CN4C)c(C)nn1C1CCC1)Cn1c-2c(C2CCCCC2)c2ccc(C(=O)NS(=O)(=O)C(C)C)cc21", "pEC50": "6.30 to 8.77"}

Query compound follows.
Given the entry COc1ccc2c(c1)C=C(c1c(C(=O)N3C[C@@H](C)O[C@@H](C)C3)cnn1-c1cnccn1)Cn1c-2c(C2CCCCC2)c2ccc(C(=O)NS(=O)(=O)C(C)C)cc21 , report its measured pEC50. 6.30 to 8.77

----------
Tested on: HCV replicon
Test Protocol: HCV replicon assay (FRET or luciferase reporter)
Type: cell-based
Details: Hepatitis C virus, one of the methods described, class symbol
Recorded Endpoint: EC50

Reference set, count: 2
{"Compound": "COc1ccc2c(c1)C=C(c1c(C(=O)N3C4CCC3CN(C)C4)c(C)nn1C1CCC1)Cn1c-2c(C2CCCCC2)c2ccc(C(=O)NS(=O)(=O)N(C)C)cc21", "Measured Value": "1.7 to 500 nM"}
{"Compound": "COCC1CN(C(=O)c2cnn(C3CCN(C)CC3)c2C2=Cc3cc(OC)ccc3-c3c(C4CCCCC4)c4ccc(C(=O)NS(=O)(=O)C(C)C)cc4n3C2)CCO1 (stereo not drawn)", "Measured Value": "1.7 to 500 nM"}

Now turn to the next compound.
Requested field: EC50. Item: CCOC(=O)c1cnn(C2CCN(C)CC2)c1C1=Cc2cc(OC)ccc2-c2c(C3CCCCC3)c3ccc(C(=O)O)cc3n2C1 1.7 to 500 nM

----------
Test system: HCV replicon
Test Protocol: HCV replicon assay (FRET or luciferase reporter)
Type: cell-based
Details: Hepatitis C virus, one of the methods described, class symbol
pEC50: −log10 of the molar value.
Recorded Endpoint: pEC50

Sample records with pEC50:
{"Molecule": "COc1ccc2c(c1)C=C(c1c(C(=O)N3C[C@@H](C)N(C)[C@@H](C)C3)cnn1C1CCC1)Cn1c-2c(C2CCCCC2)c2ccc(C(=O)NS(=O)(=O)CC(C)C)cc21", "pEC50": "6.30 to 8.77"}
{"Molecule": "COC[C@@H]1CN(C(=O)c2cnn(C3CCC3)c2C2=Cc3cc(OC)ccc3-c3c(C4CCCCC4)c4ccc(C(=O)NS(=O)(=O)C(C)C)cc4n3C2)CCO1", "pEC50": "6.30 to 8.77"}

Consider now this further molecule.
Quick one: pEC50 of COc1ccc2c(c1)C=C(c1c(C(=O)N3C4CCC3CC(C)(O)C4)cnn1C1CCC1)Cn1c-2c(C2CCCCC2)c2ccc(C(=O)NS(=O)(=O)C(C)C)cc21 (stereo not drawn) ? 6.30 to 8.77

----------
Tested System: HCV NS5B (Hepatitis C virus genotype 1b, UniProt Q9WMX2)
Construct: The protein was expressed with an 18 amino acid C-terminal truncation to enhance the solubility; made in house; host or cells: E. coli BL21(DE3)
Sequence (Q9WMX2 2420-2992): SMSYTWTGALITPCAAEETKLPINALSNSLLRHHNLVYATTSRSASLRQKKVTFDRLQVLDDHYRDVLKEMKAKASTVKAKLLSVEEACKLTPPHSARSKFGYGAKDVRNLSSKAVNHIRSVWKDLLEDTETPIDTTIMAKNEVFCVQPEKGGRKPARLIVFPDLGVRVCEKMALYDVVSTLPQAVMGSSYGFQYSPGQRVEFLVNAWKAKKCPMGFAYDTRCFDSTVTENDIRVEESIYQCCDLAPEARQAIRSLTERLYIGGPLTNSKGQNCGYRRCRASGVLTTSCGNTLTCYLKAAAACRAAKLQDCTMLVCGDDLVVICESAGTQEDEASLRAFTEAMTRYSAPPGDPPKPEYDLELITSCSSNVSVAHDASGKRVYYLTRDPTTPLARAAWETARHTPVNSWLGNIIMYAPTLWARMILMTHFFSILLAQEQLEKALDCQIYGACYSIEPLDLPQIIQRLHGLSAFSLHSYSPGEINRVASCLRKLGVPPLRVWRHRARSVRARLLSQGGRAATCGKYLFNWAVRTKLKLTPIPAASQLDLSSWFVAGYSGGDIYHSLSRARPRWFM
Test Protocol: Modified HCV NS5B RdRp enzyme assay (preincubation protocol)
Type: biochemical
Details: class symbol
pIC50: −log10 of the molar value.
Collected pIC50 values appear next to each entry.

Here is how some molecules turned out for pIC50.
{"Compound": "COc1ccc2c(c1)C=C(c1c(C(=O)N3C4CCC3CN(C)C4)cnn1C1CCN(C)CC1)Cn1c-2c(C2CCCCC2)c2ccc(C(=O)NS(=O)(=O)C(C)C)cc21", "pIC50": "6.30 to 8.77"}
{"Compound": "CCOC(=O)c1cnn(-c2ccncc2C)c1C1=Cc2cc(OC)ccc2-c2c(C3CCCCC3)c3ccc(C(=O)O)cc3n2C1", "pIC50": "6.30 to 8.77"}

Which pIC50 is listed for COc1ccc2c(c1)C=C(c1c(C(=O)N3C4CCCC3COC4)cnn1C1CCN(C)CC1)Cn1c-2c(C2CCCCC2)c2ccc(C(=O)NS(=O)(=O)C(C)C)cc21 ? 6.30 to 8.77

----------
Tested System: HCV NS5B (Hepatitis C virus genotype 1b)
Construct: The protein was expressed with an 18 amino acid C-terminal truncation to enhance the solubility; made in house; host or cells: E. coli BL21(DE3)
Test Protocol: Modified HCV NS5B RdRp enzyme assay (preincubation protocol)
Format: biochemical
Details: class symbol
pIC50: −log10 of the molar value.
Recorded pIC50, one value per entry.

{"Compound": "COc1ccc2c(c1)C=C(c1c(C(=O)N3C[C@@H]4C[C@H]3CN4)cnn1C1CCC1)Cn1c-2c(C2CCCCC2)c2ccc(C(=O)NS(=O)(=O)C(C)C)cc21", "Measured Value": "6.30 to 8.77"}

Let us move to another entry and its pIC50.
Given COc1ccc2c(c1)C=C(c1c(C(=O)N3C4CCC3CC(C)(O)C4)cnn1-c1ccncc1C)Cn1c-2c(C2CCCCC2)c2ccc(C(=O)NS(=O)(=O)C(C)C)cc21 (stereo not drawn) , state its recorded pIC50. 6.30 to 8.77
